# Tested on: BJeLR
# assay explanation: Modulatory profiling: Alamar Blue viability, lethal compound cotreated with death modulator (EC50, AUC)
# Format: cell-based, human
# Set-up: unit not given beside the values
# measurement context: BJeLR cells; lethal compound cotreated with modulator Boc D; modulatory profile value (AUC)
recorded metric: AUC, modulator BJ.Boc D

molecule=COc1nn(-c2ccccc2)c(=O)c(Cl)c1Cl reported=−0.01959
molecule="CCc1ccc(/C=C2/SC(=O)N(CCC(C)NCCCN3CCOCC3)C2=O)cc1 (stereo not shown)" reported=−0.005903
molecule="CN(C)CC(O)Cn1c2ccc(Cl)cc2c2cc(Cl)ccc21 (stereo not shown)" reported=−0.07609
molecule=Cc1ccc(O)c(/N=C/C=C/c2cccc(Br)c2)c1 reported=−0.08049
molecule=[N-]=[N+]=[N-].[Na+] reported=−0.007273
molecule=COc1cccc(-n2nnnc2S(C)(=O)=O)c1 reported=−0.04692
molecule=COc1cc([C@@H]2c3cc4c(cc3[C@H](O)[C@H]3COC(=O)[C@H]23)OCO4)cc(OC)c1OC reported=0.003542
molecule=COC(=O)[C@@H]1Cc2c([nH]c3ccccc23)C(C)(C)N1C(=O)CCl reported=0.02938
molecule="CC(C)(C)C1CCc2c(sc(NC(=O)CN3CCNCC3)c2C(N)=O)C1 (stereo not shown)" reported=−0.05212
molecule=O=C(Oc1ccc(Cl)c2cccnc12)c1ccco1 reported=−0.007995
molecule=O=C1C(Cl)=C(N2CCOCC2)C(=O)C(Cl)=C1N1CCOCC1 reported=−0.04323
molecule=O=C(CCl)N(c1ccc(Cl)cc1)c1c[nH]c2ccccc12 reported=0.03092
molecule=O=P(Oc1ccccc1)(Oc1ccccc1)O[C@@H]1C=CS(=O)(=O)C1 reported=−0.03963
molecule=CS[C@H]1SC[C@H]2C(=O)N(C)[C@@H](C(C)C)C(=O)OC[C@@H](NC(=O)c3cnc4ccccc4n3)C(=O)N[C@@H](C)C(=O)N(C)[C@@H]1C(=O)N(C)[C@@H](C(C)C)C(=O)OC[C@@H](NC(=O)c1cnc3ccccc3n1)C(=O)N[C@@H](C)C(=O)N2C reported=0.04925
molecule="CC(C)C1CC(CCNCc2ccc3c(c2)OCO3)(c2ccccc2)CCO1 (stereo not shown)" reported=−0.0008828
molecule=COc1cc2c(c(OC)c1OC)-c1ccc(OC)c(=O)cc1[C@@H](NC(C)=O)CC2 reported=−0.0009082
molecule="CCOc1ccccc1-n1c(C(C)N2CCN(C(=O)COc3ccc(Cl)cc3)CC2)nc2ccccc2c1=O (stereo not shown) [erastin, reference compound]" reported=−0.0006165
molecule=CC[C@]1(O)C[C@@H]2CN(CCc3c([nH]c4ccccc34)[C@@](C(=O)OC)(c3cc4c(cc3OC)N(C)[C@H]3[C@@](O)(C(=O)OC)[C@H](OC(C)=O)[C@]5(CC)C=CCN6CC[C@]43[C@@H]65)C2)C1 reported=0.001717
molecule=COc1cccc2c1C(=O)c1c(O)c3c(c(O)c1C2=O)C[C@@](O)(C(=O)CO)C[C@@H]3O[C@H]1C[C@H](N)[C@H](O)[C@H](C)O1 reported=0.04966
molecule="COc1c2c(cc3c1C(CC(=O)/C=C/c1ccccc1)[N+](C)(C)CC3)OCO2 (stereo not shown)" reported=0.05622
molecule=CC(/C=C/C(=O)NO)=C\[C@@H](C)C(=O)c1ccc(N(C)C)cc1 reported=0.09612
molecule=CCOC(=O)[C@@H]1[C@@H](c2ccccc2)C(=O)CCN1NC(=O)c1ccccc1 reported=0.03243
molecule="COc1ccc(N(C(=O)CCl)C(C(=O)NCCc2ccccc2)c2cccs2)cc1 (stereo not shown)" reported=−0.0206
molecule=Cc1cccnc1Nc1nc(-c2ccccn2)cs1 reported=−0.02989
molecule=O=[N+]([O-])c1ccc(O)c([N+](=O)[O-])c1 reported=−0.01714
